Biological target: T1, human CD24 (human, UniProt P25063 27-59, heavily glycosylated, GPI-anchored (as described in the background))
T1 chain: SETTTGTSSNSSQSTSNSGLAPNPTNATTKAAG
Experiment: FACS binding; Nalm6 cells
Listed binders paired with reported EC50
Please reply with the bare figure in nM and do not write the unit itself.

# count of solved cases: 2
binder | valueKind | unitsText | testValue
71A4F12 (antibody, V domains shown) VH: EVQLQQSGPELVKPGASVKIPCKASGYTFTAYNMDWVKQSHGMSLEWIGDINPNNGDTVYNQNFKGKATLTVDKSSSTAYMELRSLTSEDTAVYYCARRGSYYYGSSHYALDFWGQGTSVSVSS VL: DIQMTQITSSLSASLGNRVTISCRASQDIRNYLNWYQQKPDGTVKLLIYYTSRLLSGVPSRFSGSGSGTDYSLTISNLEQEDIATYFCQQDNSLPRTFGGGTRLEIR | EC50 | nM | 24.9
100F2E3 (antibody, V domains shown) VH: QVQLQQPGAELVRPGSSVKLSCKTSDYTFTSYWMDWVKQRPGQGLEWIGNIYPSDSKTHSNQKFRDKATLTVDKSSSTAYMQLNSLTSEDSAVYYCARRGGYYGYAMDYWGQGTSVTVSS VL: DIVMTQSPSSLSVSAGEKVTMSCKSSQSLLNSGNQDNYLAWYQQKPGQPPKLLIYGASIRESGVPDRFTGSGSGTDFTLTISSVQAEDLAVYYCQNDHSYPYTFGGGTKLEIK | EC50 | nM | 7.84

Next binder, please.
Exercise: State its EC50: 101H9G9A2 (antibody, V domains shown) VH: QVQLLQPGAELVRPGSSVKLSCKASDYTFTSYWMDWVKQRPGQGLEWIGNIYPSDSKTHYNQKFKDKATLTVDKSSSTAYMQLNSLTSEDSAVYYCARRGGYYAYAMDYWGQGTSVTVSS VL: DIVMTQSPSSLSVSAGEKVTMRCKSSQSLLNSGNQDNYLAWYQQKPGQPPKLLLYGARIRESGVPDRFIGSGSGTDFTLTISSVQAEDLAVYYCQNDHSYPYTFGGGTKVEIK
Key: 2.55

Recorded values, source patent US20240052052A1.
